Measured % Change in Edema 10 min, listed per entry for reference.
System: purified PLA2, from the diamond back cotton mouth snake (A. piscivorus piscivorus)
PROTOCOL DESCRIPTION: in vivo PLA2 murine paw edema assay
Set-up: species or system A. piscivorus piscivorus PLA2 in CD-1 mice
CONDITIONS: 10 mg/kg i.v.; 10 min
Numeric only. Scale: %

Would you please look over these solved cases?
compound=O=C(/C=C/c1ccc(Cl)cc1)C1=C(O)COC1=O measured_endpoint="% Change in Edema 10 min" meas_value=-19
compound=O=C(/C=C/c1cccc([N+](=O)[O-])c1)C1=C(O)COC1=O measured_endpoint="% Change in Edema 10 min" meas_value=-11
compound=CCCCCCCC/C=C\CCCCCCCC(=O)C1=C(O)COC1=O measured_endpoint="% Change in Edema 10 min" meas_value=-48

As a next step, examine the compound that follows.
Consider the compound shown here: CCCCCCCCCC(=O)C1=C(O)COC1=O [Example 1, 4-Hydroxy-3-(1-oxodecyl)-2(5H)-furanone] What is its recorded % Change in Edema 10 min?
-51
